- System: GR from baker's yeast (S. cerevisiae) (Saccharomyces cerevisiae)
- Sequence (P41921 17-483 limits assumed): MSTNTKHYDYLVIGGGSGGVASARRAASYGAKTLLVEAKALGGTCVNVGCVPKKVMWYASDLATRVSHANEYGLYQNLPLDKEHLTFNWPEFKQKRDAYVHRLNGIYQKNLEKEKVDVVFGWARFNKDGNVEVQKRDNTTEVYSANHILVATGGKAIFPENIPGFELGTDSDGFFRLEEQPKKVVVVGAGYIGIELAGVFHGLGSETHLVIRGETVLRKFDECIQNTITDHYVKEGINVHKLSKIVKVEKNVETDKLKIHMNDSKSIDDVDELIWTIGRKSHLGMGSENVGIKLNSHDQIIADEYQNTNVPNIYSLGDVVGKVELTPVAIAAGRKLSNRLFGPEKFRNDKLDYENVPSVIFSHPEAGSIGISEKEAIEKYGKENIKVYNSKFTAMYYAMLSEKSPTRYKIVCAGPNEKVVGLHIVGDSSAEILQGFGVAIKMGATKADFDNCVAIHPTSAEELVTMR
- Method notes: Glutathione reductase inhibition (Beutler's method, NADPH and GSSG as substrates)
- Format: biochemical
- Assay conditions: 25 °C, pH 8.0; mean from at least three determinations, errors ±3%; read-out: IC50 values obtained from regression analysis graphs for GR enzyme
I'd appreciate it if you could supply IC50 values for the items below.
Numbers only, in nM.

Examples from the recorded data:
[[record]]
compound = "O=NN(CCCl)C(=O)NCCCl [N,N-bis(2-chloroethyl)-N-nitrosourea, reference compound]"
system = "GR from baker's yeast (S. cerevisiae) (Saccharomyces cerevisiae)"
reported_property = "IC50"
value = 645000

[[record]]
compound = "Cc1ccc(-c2cccn2C)cc1 [Compound 8b]"
system = "GR from baker's yeast (S. cerevisiae) (Saccharomyces cerevisiae)"
reported_property = "IC50"
value = 1400

[[record]]
compound = "Cc1cccc(-c2cccn2C)c1 [Compound 8c]"
system = "GR from baker's yeast (S. cerevisiae) (Saccharomyces cerevisiae)"
reported_property = "IC50"
value = 1660

[[record]]
compound = "Cn1cccc1-c1ccccc1 [Compound 8a]"
system = "GR from baker's yeast (S. cerevisiae) (Saccharomyces cerevisiae)"
reported_property = "IC50"
value = 4940

[[record]]
compound = "Cn1cccc1-c1ccc(C#N)cc1 [Compound 8r]"
system = "GR from baker's yeast (S. cerevisiae) (Saccharomyces cerevisiae)"
reported_property = "IC50"
value = 1790

[[record]]
compound = "COc1ccccc1-c1cccn1C [Compound 8n]"
system = "GR from baker's yeast (S. cerevisiae) (Saccharomyces cerevisiae)"
reported_property = "IC50"
value = 678

[[record]]
compound = "Cc1ccccc1-c1cccn1C [Compound 8d]"
system = "GR from baker's yeast (S. cerevisiae) (Saccharomyces cerevisiae)"
reported_property = "IC50"
value = 1050

[[record]]
compound = "Cn1cccc1-c1ccc(F)cc1 [Compound 8i]"
system = "GR from baker's yeast (S. cerevisiae) (Saccharomyces cerevisiae)"
reported_property = "IC50"
value = 1420

[[record]]
compound = "Cn1cccc1-c1ccc(OC(F)(F)F)cc1 [Compound 8q]"
system = "GR from baker's yeast (S. cerevisiae) (Saccharomyces cerevisiae)"
reported_property = "IC50"
value = 846

[[record]]
compound = "Cn1cccc1-c1ccc(Br)cc1 [Compound 8e]"
system = "GR from baker's yeast (S. cerevisiae) (Saccharomyces cerevisiae)"
reported_property = "IC50"
value = 1500


Please turn your attention to the following entry.
Looking up Cn1cccc1-c1ccccc1[N+](=O)[O-] [Compound 8m] , I found its IC50 recorded as 104
